Test system: IGFBP-1
method: IGFBP-1 mRNA expression in HepG2 cells
Format: cell-based, human
condition_summary: Experiment 1, basal (no insulin); HepG2; 100 nM oligomeric compound
In the oligonucleotide strings, read from the 5' end, every base follows the letter of its sugar. An asterisk marks phosphorothioate; unmarked linkages are phosphodiester. Other units and linkages are bracketed, terminal groups are in braces. A string of capitals states the bases alone. e = 2'-O-(2-methoxyethyl) (MOE); [5mC] = 5-methylcytosine
# reported IGFBP-1 (% UTC); entries follow
value_type: IGFBP-1 (% UTC)

# substance, observed_measurement
measured = [
    ("327876 (antisense eA*eA*e[5mC]*eA*e[5mC]*eT*eG*eA*eT*eT*eT*e[5mC]*eA*eA*eA*eT*eG*eG*eT*eG*e[5mC]*eT*eA) [compound 327876]", "93 % UTC"),
    ("327919 (antisense eG*eA*eA*eA*e[5mC]*e[5mC]*e[5mC]*eA*eG*e[5mC]*eA*eG*eA*e[5mC]*eA*eA*eT*eG*eT*eA*eG*e[5mC]*eT) [compound 327919]", "96 % UTC"),
    ("327941 (antisense eA*eA*e[5mC]*e[5mC]*e[5mC]*eA*e[5mC]*e[5mC]*eG*eA*e[5mC]*eA*eG*e[5mC]*eA*eA*eT*eG*eA*eA*eT*eG*eT*eT) [compound 327941]", "83 % UTC"),
]

---

Test system: HuVECs
method: Endothelial tube formation assay in HuVECs
condition_summary: 75 nM oligomeric compound, Table 57
In the oligonucleotide strings, read from the 5' end, every base follows the letter of its sugar. An asterisk marks phosphorothioate; unmarked linkages are phosphodiester. Other units and linkages are bracketed, terminal groups are in braces. A string of capitals states the bases alone. e = 2'-O-(2-methoxyethyl) (MOE); [5mC] = 5-methylcytosine
value_type: % Activity Relative to UTC (tube formation) (%)

# substance, observed_measurement
records = [
    ("327917 (antisense eT*e[5mC]*eA*eA*e[5mC]*eA*eT*e[5mC]*eA*eG*eT*e[5mC]*eT*eG*eA*eT*eA*eA*eG*e[5mC]*eT*eA) [compound 327917]", 82.8),
    ("327907 (antisense eA*eG*e[5mC]*e[5mC]*eT*eA*eT*e[5mC]*e[5mC]*eT*eG*eG*eA*eT*eT*eA*e[5mC]*eT*eT*eG*eA*eA) [compound 327907]", 62.1),
    ("327903 (antisense eA*eA*e[5mC]*eT*eA*eT*eA*e[5mC]*eA*eA*e[5mC]*e[5mC]*eT*eA*e[5mC]*eT*eA*e[5mC]*e[5mC]*eT*e[5mC]*eA) [compound 327903]", 103.5),
    ("327906 (antisense eT*e[5mC]*eA*eT*eA*eG*e[5mC]*e[5mC]*e[5mC]*eT*eG*eT*eA*e[5mC]*eA*eA*eT*eG*e[5mC]*eT*eG*e[5mC]*eT) [compound 327906]", 69.0),
    ("327909 (antisense e[5mC]*e[5mC]*e[5mC]*eA*eA*e[5mC]*eA*eA*e[5mC]*eA*eT*eG*eA*eA*eA*e[5mC]*eT*eA*e[5mC]*e[5mC]*eT*eA) [compound 327909]", 96.6),
]

---

Tested on: adipocytes
method: Triglyceride accumulation assay in adipocytes
Format: cell-based, human
condition_summary: differentiating adipocytes transfected with oligomeric compound; Table 75
In the oligonucleotide strings, read from the 5' end, every base follows the letter of its sugar. An asterisk marks phosphorothioate; unmarked linkages are phosphodiester. Other units and linkages are bracketed, terminal groups are in braces. A string of capitals states the bases alone. e = 2'-O-(2-methoxyethyl) (MOE); [5mC] = 5-methylcytosine
# reported TG (triglyceride accumulation); entries follow
value_type: TG (triglyceride accumulation)

# substance, observed_measurement
measured = [
    ("346694 (AACCCAUGGAAUUCAGUUCUCA; all 2'-MOE, all phosphorothioate, methylation of C and T or U not given here) [compound 346694]", "31 percentage of untreated control (UTC)"),
    ("328131 (antisense eA*eT*eA*eT*eG*eT*e[5mC]*eA*eT*eA*eT*e[5mC]*eA*eA*eA*e[5mC]*eT*e[5mC]*e[5mC]*eT*eA) [compound 328131]", "74 percentage of untreated control (UTC)"),
    ("346915 (ACAUCGUUACCAGACAGUGUUA; all 2'-MOE, all phosphorothioate, methylation of C and T or U not given here) [compound 346915]", "73 percentage of untreated control (UTC)"),
]
